src = ChEMBL document CHEMBL3425486

Item-by-item account of Activity
tgt: ATP-dependent translocase ABCB1 (Homo sapiens, UniProt P08183)
Sequence (P08183 whole entry): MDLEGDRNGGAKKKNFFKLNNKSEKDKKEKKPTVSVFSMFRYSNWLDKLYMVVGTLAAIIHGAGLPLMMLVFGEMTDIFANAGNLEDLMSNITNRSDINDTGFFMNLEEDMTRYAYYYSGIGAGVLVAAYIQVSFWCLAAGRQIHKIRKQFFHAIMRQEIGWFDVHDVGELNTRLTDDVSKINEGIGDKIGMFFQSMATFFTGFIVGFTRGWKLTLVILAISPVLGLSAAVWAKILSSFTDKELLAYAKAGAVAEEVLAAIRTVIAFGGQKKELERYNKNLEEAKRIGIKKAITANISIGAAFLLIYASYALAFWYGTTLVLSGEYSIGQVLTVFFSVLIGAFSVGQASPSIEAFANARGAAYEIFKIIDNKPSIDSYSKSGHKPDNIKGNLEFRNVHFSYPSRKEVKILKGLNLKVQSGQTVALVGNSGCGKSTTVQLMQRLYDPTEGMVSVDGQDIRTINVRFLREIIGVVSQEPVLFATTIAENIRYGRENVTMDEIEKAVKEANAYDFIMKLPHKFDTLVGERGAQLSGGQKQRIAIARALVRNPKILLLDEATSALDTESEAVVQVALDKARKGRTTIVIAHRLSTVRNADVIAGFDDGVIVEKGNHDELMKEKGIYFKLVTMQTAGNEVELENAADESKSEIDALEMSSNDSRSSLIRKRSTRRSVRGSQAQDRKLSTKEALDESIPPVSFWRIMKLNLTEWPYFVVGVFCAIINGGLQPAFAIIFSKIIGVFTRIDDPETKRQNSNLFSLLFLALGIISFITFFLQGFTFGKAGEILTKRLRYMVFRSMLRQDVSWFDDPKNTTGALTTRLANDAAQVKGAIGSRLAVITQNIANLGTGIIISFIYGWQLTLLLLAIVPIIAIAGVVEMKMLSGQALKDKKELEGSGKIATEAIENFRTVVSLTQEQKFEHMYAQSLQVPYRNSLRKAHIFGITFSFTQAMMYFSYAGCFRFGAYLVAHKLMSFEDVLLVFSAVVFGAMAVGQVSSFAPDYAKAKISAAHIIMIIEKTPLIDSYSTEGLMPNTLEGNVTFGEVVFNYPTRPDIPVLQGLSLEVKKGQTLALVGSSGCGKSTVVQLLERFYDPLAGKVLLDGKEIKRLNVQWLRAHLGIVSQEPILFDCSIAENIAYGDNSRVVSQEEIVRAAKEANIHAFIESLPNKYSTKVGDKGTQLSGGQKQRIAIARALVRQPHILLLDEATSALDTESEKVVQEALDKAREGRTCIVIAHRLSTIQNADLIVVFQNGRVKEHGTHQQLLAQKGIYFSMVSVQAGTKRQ
assayComment: Inhibition of P-gp in human MCF7/ADR cells assessed as reversal of multidrug resistance by measuring relative enhancement intensity for adriamycin-induced cytotoxicity at 10 uM after 48 hrs by SRB colorimetric assay
Type: cell-based
Parameters: scale not given: the % may be the effect or the level left
recordedConditions: nci/adr-res
measuredQuantity: Activity (%)

1) C=C1CC[C@H]2[C@@H](/C=C(\C)C(=O)[C@@]3(O)C[C@H](C)[C@H](OC(=O)CC)[C@@H]3[C@H]1OC(=O)c1ccccc1)C2(C)C	12.1
2) C=C1CC[C@H]2[C@@H](/C=C(\C)C(=O)[C@@]3(O)C[C@H](C)[C@H](OC(=O)CC)[C@@H]3[C@H]1OC(=O)CC)C2(C)C	4.6
3) C=C1CC[C@H]2[C@@H](/C=C(\C)C(=O)[C@@]3(O)C[C@H](C)[C@H](OC(C)=O)[C@@H]3[C@H]1OC(C)=O)C2(C)C	4.7
